# Tested on: HCC 2998
# TEST: NCI tumour cell line growth inhibition, 48 h
Calls of active or inactive are those of the source. Rule as the data show it: active = GI50 up to about 1.1 µM and inactive = higher.
Please reply with one of these outcomes: active, inactive

Would you please look over these solved cases?
                                   molecule  assigned_label
0  C=C1CC(COc2ccc3c(C)c(C)c(=O)oc3c2C)(c2ccccc2)OC1=O (configuration not stated)        inactive
1            CO/C(=N\N=C\c1ccccc1F)c1ccncc1        inactive
2        N#Cc1ccc(Oc2nc3ccccc3nc2C(=O)O)cc1        inactive
3  CC(C)c1cccc(C(C)C)c1NC(=O)/C(Cc1nc2ccc(Cl)cc2nc1O)=N\NC(=O)C[N+](C)(C)C        inactive
4  COc1cccc(N2N=C3c4ccccc4-n4c(nc5ccccc54)C3C2N)c1 (configuration not stated)        inactive
5  C=C1C2CCCC1C1(S(C)(=O)=O)CCCCC21O (configuration not stated)        inactive
6  COc1ccc(/C(=N\NC(=S)NN)C(c2ccc(OC)cc2)C2C(=O)Oc3ccccc32)cc1 (configuration not stated)        inactive
7  COC(=O)CN1SC2(SC13C(C)(C)C(=O)C3(C)C)C(C)(C)C(=O)C2(C)C        inactive
8  N#Cc1nc(-c2cc([N+](=O)[O-])cc([N+](=O)[O-])c2)oc1N        inactive
9                  CNC(=S)N1CCN(C(C)=O)C1=S        inactive

-- ask Recorded call for "COc1ccc(C)cc1-c1ccc(-c2cc(C)ccc2OC)o1" ?
-- reply inactive

-- ask Also check "CCOP(=O)(OCC)/C(C#N)=C/c1ncc[nH]1"
-- reply inactive

-- ask Cool, now "c1ccc(C(=NNc2nc3ccccc3o2)c2ccccn2)nc1"
-- reply active

====

The entries below come with measured GI50 values attached.
# Test system: SNB-19
# TEST: NCI tumour cell line growth inhibition, 48 h
The source made the active and inactive calls. Cut-off read from the data, not from the text of the source: active = GI50 up to about 1.1 µM and inactive = higher.

Example entries begin here.
>>> print(df.to_string())
                                   compound             observed
0       Nc1ncnc2c1ncn2[C@H]1C=C[C@@H](NO)C1  > 100 µM (inactive)
1  CCOC(=O)Cc1nc2nn(Cc3ccccc3)cc2c(=O)[nH]1  > 100 µM (inactive)
2            O=C(O)c1cc(C(=O)O)nc(C(=O)O)c1  > 100 µM (inactive)

With those in mind, consider the next compound.
-- ask Would you kindly share the measured GI50 for "COc1ccc(/N=C(C)/C(C)=N/c2ccc(OC)cc2)cc1" ?
-- reply > 100 µM (inactive)

====

# Lookup of reported GI50 keyed by entry
# System: MCF7
# TEST: NCI tumour cell line growth inhibition, 48 h
Activity calls are given as the source filed them. No stated cut-off is given here; in the data, active = GI50 up to about 1.1 µM and inactive = higher.

>>> print(df.to_string())
                                   compound  measured_quantity            observed
0  CCOC(=O)c1sc2nc1CSc1sc(=S)sc1SCc1nc(sc1C(=O)OCC)-c1nc(c(C(=O)OCC)s1)CSc1sc(=S)sc1SCc1nc-2sc1C(=O)OCC               GI50  > 10 µM (inactive)

-- ask Please state recorded GI50 (tested on MCF7) of "CCCCCC[C@H]([C@H](C)O)n1cnc2c(N)ncnc21"
-- reply > 100 µM (inactive)

-- ask "COC(=O)[C@H](Cc1ccccc1)NC(=O)N(CCNC(=O)OC(C)(C)C)c1ccccc1" , same question.
-- reply > 100 µM (inactive)

-- ask Next up: CC12CCc3ccccc3C1=Nc1ccccc12 (configuration not stated)
-- reply 48.6 µM (inactive)

-- ask Moving on to "Cc1c2c(c(C)n1-c1ccccc1)C(=O)N(CCSC(=N)N)C2=O"
-- reply 32.1 µM (inactive)

-- ask Lookup "CN(C)c1ccc(C2=C([O-])c3cc(-[n+]4ccccc4)ccc3C2=O)cc1"
-- reply > 100 µM (inactive)

-- ask Let us now turn to O=C1/C(=C\c2ccc([N+](=O)[O-])o2)SC2NC(COc3ccc(Cl)cc3)=NN12 (configuration not stated)
-- reply 2.12 µM (inactive)

====

compounds and their reported GI50
# Tested on: HCT-15

-- ask If you can, please state the reported GI50 value of "Cc1c(C(=O)CSc2nc3ccccc3c(=O)n2-c2ccccc2)c(=O)n(-c2ccccc2)n1C" .
-- reply > 100 µM

-- ask One more compound: COC1(OC)CCC2C1C1CCC(OC)(OC)C21 (centres undefined)
-- reply > 50 µM

-- ask Then what about the compound COC(=O)[C@@]12C=CC(=O)[C@H]3C[C@@H](C(C(C)C)C1)[C@]32OC (some centres undefined) ?
-- reply > 100 µM

-- ask Now give it for COC(=O)[C@@]12C3=NO[C@]1(C(=O)OC)C(O[Si](C)(C)C(C)(C)C)[C@@H](OC(C)=O)[C@@H](OC(C)=O)[C@@H]2[C@@H](OCc1ccccc1)CC3 (some centres undefined) too.
-- reply > 30.9 µM

-- ask Another: "C[n+]1c(-c2ccc(/C=N/NC(=N)N/N=C/c3ccc(-c4cn5cc(Cl)ccc5[n+]4C)cc3)cc2)cn2cc(Cl)ccc21"
-- reply > 100 µM

====

Catalogue of GI50 values
# Tested on: OVCAR-8
# TEST: NCI tumour cell line growth inhibition, 48 h
Calls of active or inactive are those of the source. No stated cut-off is given here; in the data, active = GI50 up to about 1.1 µM and inactive = higher.

MOLECULE	OBSERVED
COC(=O)[C@H](Cc1ccccc1)NC(=O)N(CCNC(=O)OC(C)(C)C)c1ccccc1	> 100 µM (inactive)

-- ask I am curious: what GI50 value has been reported for COC(=O)C1=C(C(=O)OC)N(c2ccncc2)C(c2ccco2)=CC1c1ccccc1[N+](=O)[O-] (stereo unspecified) ?
-- reply 8.04 µM (inactive)

====

# Test system: Malme-3M
# TEST: NCI tumour cell line growth inhibition, 48 h
Active and inactive are the calls of the source. Cut-off read from the data, not from the text of the source: active = GI50 up to about 1.1 µM and inactive = higher.
Reported GI50 by item:

Known results for compounds:
In [3]: df
Out[3]:
                                   compound             observed
0  CCCCC/N=C/c1c(O)c(O)c(C(C)C)c2cc(C)c(-c3c(C)cc4c(C(C)C)c(O)c(O)c(/C=N/CCCCC)c4c3O)c(O)c12   12.7 µM (inactive)
1  Clc1ncnc2c1nc(C#Cc1ccccc1)n2C1CCCCO1 (configuration not stated)   1.95 µM (inactive)
2  O=C(NNC(=O)c1ccccc1SSc1ccccc1C(=O)NNC(=O)c1ccccc1S)c1ccccc1S   21.6 µM (inactive)
3  CC(=O)N1c2ccccc2C23CCN(C)CC4C(C)OCC(C4CC2=O)C13 (configuration not stated)  > 100 µM (inactive)
4               CCn1c(=O)c2cn[nH]c2n(C)c1=O  > 100 µM (inactive)
5  Nc1nc(O)c2nc(CNc3ccc(C(=O)NC(CCC(=O)O)C(=O)O)cc3)cnc2n1 (configuration not stated)  > 100 µM (inactive)

-- ask Item "COc1cc(/C=C/c2ccc(/C=C/c3cc(OC)c(OC)c(OC)c3)cc2)cc(OC)c1OC" has what recorded GI50?
-- reply 20.3 µM (inactive)

====

# Tested on: OVCAR-8
# TEST: NCI tumour cell line growth inhibition, 48 h
The source made the active and inactive calls. No stated cut-off is given here; in the data, active = GI50 up to about 1.1 µM and inactive = higher. Where a SMILES comes first, the peptide text is derived from it. [ ]: non-standard residue; d: D form. The star is where a group is joined. ξ: configuration not given here. ξNMe2Val = CC(C)C(C(=O)*)N(C)C; NMeV = CN[CH](C(=O)O)C(C)C; NHBn = c1ccc(CN*)cc1
# GI50 per record follows

Reference set, count: 8
COMPOUND	OBSERVED
CCOc1cc(CCNC)c2c(ccc3ccc(OC)c(O)c32)c1OC	13.6 µM (inactive)
COc1cc(Br)c(CC2C3=C(CCN2C(=O)C2CCC2)CC2(CC3)OCCO2)cc1O (configuration not stated)	> 100 µM (inactive)
C[N+](C)(C)CCC(=O)CC[N+](C)(C)C	19.8 µM (inactive)
CC(C)C(NC(=O)C(C(C)C)N(C)C)C(=O)N(C)C(C(=O)N1CCCC1C(=O)N1CCCC1C(=O)NCc1ccccc1)C(C)C (configuration not stated) (ξNMe2Val-V[NMeV]PP-NHBn; configuration not given here)	< 0.0001 µM (active)
COc1cccc(N2N=C3c4ccccc4-n4c(nc5ccccc54)C3C2N)c1 (configuration not stated)	> 100 µM (inactive)
Cn1cc(-c2csc(-c3cn(C)c4ccccc34)n2)c2ccccc21	25.6 µM (inactive)
CC(C)(C)c1cc2c3c(c1)c(=O)c1cccc4c(O)c5cccc(c2=O)c5c-3c41	> 100 µM (inactive)
O=C(Nc1ccccc1[N+](=O)[O-])c1ccccc1	> 100 µM (inactive)

-- ask State the recorded GI50 for this entry: CC1(C)CCC[C@@]2(C)C1CC[C@@]1(CO)O[C@H](C3=CC(=O)OC3O)C[C@H]12 (some centres not stated)
-- reply 15.6 µM (inactive)

-- ask Next up: "COc1c(O)c2ccccc2c2cc(O)ccc12"
-- reply 3.88 µM (inactive)

-- ask Another compound to check: CC1=CC[C@H](C(C)C)C(C(O)[C@@H](C)O[Si](c2ccccc2)(c2ccccc2)C(C)(C)C)C1=O (some centres not stated)
-- reply 22.8 µM (inactive)

-- ask And what about the compound CC1(C)C2CCC(CN)(C2)C1O (configuration not stated) ?
-- reply > 100 µM (inactive)
